Test summary: yeast display, Sf9 membrane polyspecificity reagent, FACS + sequencing; frameworks hold sequencing errors

| Seq string | polyreactivity (PSR sort gate) |
| --- | --- |
| QVQLVESGGGLVQAGGSLRLSCAASGRTLVRNAMGWYTQAPGKEREFVAGITESGDRTSYADSVKGRFTISRDNAKNTVYLQMNSLKPEDTAVYFCAASRPWDFYSFGFDYWGQGTQVTVSS | high polyreactivity |
| QVQLVESGGGLVQAGGSLRLSCAASGGINGTYTMGWYRQAPGKEREMGAAISKRGGNTYYADSVKGRFTISRDNAKNTVYLQMNSLKPEDTAVYYCAKRVSGSPPTAGSLSDSWGQGTQVTVSS | high polyreactivity |
